biological target: T1, V domain of human CD33 (human, UniProt P20138 18-139, limits assumed); assay: SPR, Fab captured, 37C;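 further: Anti-CD33 Fabs captured on anti-Fab chip, soluble monomeric CD33 or its domains flowed over at several concentrations, double-referenced data fitted 1:1, Kd taken as koff/kon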
T1 construct: recombinant, fully glycosylated V domain; also called Human CD33 V domain
measured_quantity: pKd
Give bare numbers, as −log10 of the molar value.

Solved entries:
1) ADI-10177 Fab (Fab, V domains shown, Fab fragment; also called Ab2) VH: EVQLVESGGGLVQPGGSLRLSCAASGFTFSSYWMSWVRQAPGKGLEWVANIKQDGSEKYYVDSVKGRFTISRDNAKNSLYLQMNSLRAEDTAVYYCARPLNAGELDVWGQGTMVTVSS VL: DIQMTQSPSTLSASVGDRVTITCRASQSISSWLAWYQQKPGKAPKLLIYEASSLESGVPSRFSGSGSGTEFTLTISSLQPDDFATYYCQQLESYPLTFGGGTKVEIK: 7.26
2) ADI-11830 Fab (Fab, V domains shown, Fab fragment; also called Ab9) VH: EVQLVESGGGLVQPGGSLRLSCAASGFTFSSYWMSWVRQAPGKGLEWVANINTDGSEVYYVDSVKGRFTISRDNAKNSLYLQMNSLRAEDTAVYYCARDVGPGIAYQGHFDYWGQGTLVTVSS VL: DIQMTQSPSSLSASVGDRVTITCRASQVIYSYLNWYQQKPGKAPKLLIYAASSLKSGVPSRFSGSGSGTDFTLTISSLQPEDFATYYCQQVYDTPLTFGGGTKVEIK: 8.35
3) ADI-11776 Fab (Fab, V domains shown, Fab fragment; also called Ab3; H76) VH: EVQLLESGGGLVQPGGSLRLSCAASGFTFSKYTMSWVRQAPGKGLEWVSAIVGSGESTYFADSVKGRFTISRDNSKNTLYLQMNSLRAEDTAVYYCAREGGPYYDSSGYFVYYGMDVWGQGTTVTVSS VL: DIQMTQSPSTLSASVGDRVTITCRASQSISSWLAWYQQKPGKAPKLLIYKASSLESGVPSRFSGSGSGTEFTLTISSLQPDDFATYYCQQYDDLPTFGGGTKVEIK: 9.48

Dear reader, for each entry below, please note its pKd.
1. ADI-10158 Fab (Fab, V domains shown, Fab fragment; also called Ab14) VH: QVQLQQWGAGLLKPSETLSLTCAVYGGSFSGYYWSWIRQPPGKGLEWIGEIDHSGSTNYNPSLKSRVTISVDTSKNQFSLKLSSVTAADTAVYYCARQGIHGLRYFDLWGRGTLVTVSS VL: EIVMTQSPATLSLSPGERATLSCRASQSVSSYLAWYQQKPGQAPRLLIYDASNRATGIPARFSGSGSGTDFTLTISSLEPEDFAVYYCQQDHNFPYTFGGGTKVEIK
2. ADI-11807 Fab (Fab, V domains shown, Fab fragment; also called Ab5; I07) VH: EVQLVESGGGLVQPGGSLRLSCAASGFTFGSYWMSWVRQAPGKGLEWVATIKQDGSEKSYVDSVKGRFTISRDNAKNSLYLQMNSLRAEDTAVYYCARPLNAGELDVWGQGTMVTVSS VL: DIQMTQSPSTLSASVGDRVTITCRASQSISSWLAWYQQKPGKAPKLLIYEASSLESGVPSRFSGSGSGTEFTLTISSLQPDDFATYYCQQSQSYPPITFGGGTKVEIK
3. ADI-11825 Fab (Fab, V domains shown, Fab fragment; also called Ab25) VH: EVQLVESGGGLVQPGGSLRLSCAASGFTFGGYWMSWVRQAPGKGLEWVANINQDGSEEYYVDSVKGRFTISRDNAKNSLYLQMNSLRAEDTAVYYCAREANYYGNVGDDYWGQGTLVTVSS VL: DIQMTQSPSSLSASVGDRVTITCRASQSIYNYLNWYQQKPGKAPKLLIYAASNLHSGVPSRFSGSGSGTDFTLTISSLQPEDFATYYCQQAFHVPITFGGGTKVEIK
4. ADI-10157 Fab (Fab, V domains shown, Fab fragment; also called Ab13) VH: QVQLQESGPGLVKPSETLSLTCTVSGGSISSYYWSWIRQPPGKGLEWIGSIYYSGSTNYNPSLKSRVTISVDTSKNQFSLKLSSVTAADTAVYYCARVGGVYSTIETYGMDVWGQGTTVTVSS VL: EIVMTQSPATLSVSPGERATLSCRASQSVSSNLAWYQQKPGQAPRLLIYGASTRATGIPARFSGSGSGTEFTLTISSLQSEDFAVYYCQQYTVYPPTFGGGTKVEIK
5. ADI-11826 Fab (Fab, V domains shown, Fab fragment; also called Ab26) VH: EVQLVESGGGLVQPGGSLRLSCAASGFTFPGYWMSWVRQAPGKGLEWVANINQDGSEVYYVDSVKGRFTISRDNAKNSLYLQMNSLRAEDTAVYYCAREANYYGNVGDDYWGQGTLVTVSS VL: DIQMTQSPSSLSASVGDRVTITCRASQSIYNYLNWYQQKPGKAPKLLIYAASSTQSGVPSRFSGSGSGTDFTLTISSLQPEDFATYYCQQAFHVPITFGGGTKVEIK
6. ADI-11828 Fab (Fab, V domains shown, Fab fragment; also called Ab27) VH: EVQLVESGGGLVQPGGSLRLSCAASGFTFSSYWMSWVRQAPGKGLEWVANINQDGSEVYYVDSVKGRFTISRDNAKNSLYLQMNSLRAEDTAVYYCARDVGPGIAYQGHFDYWGQGTLVTVSS VL: DIQMTQSPSSLSASVGDRVTITCRASQSIYYYLNWYQQKPGKAPKLLIYAASSRQSGVPSRFSGSGSGTDFTLTISSLQPEDFATYYCQQVYDTPLTFGGGTKVEIK
7. ADI-11835 Fab (Fab, V domains shown, Fab fragment; also called Ab10; I35) VH: QLQLQESGPGLVKPSETLSLTCTVSGGSISSTDYYWGWIRQPPGKGLEWIGSIGYSGTYYNPSLKSRVTISVDTSKNQFSLKLSSVTAADTAVYYCARETAHDVHGMDVWGQGTTVTVSS VL: EIVLTQSPATLSLSPGERATLSCRASHSVYSYLAWYQQKPGQAPRLLIYDASNRATGIPARFSGSGSGTDFTLTISSLEPEDFAVYYCQQYDNLPTFGGGTKVEIK

(A)
1: 6.90; 2: 9.55; 3: 8.40; 4: 6.87; 5: 8.36; 6: 8.20; 7: 8.94
